Biological target: T1, cyno IL-33 N-His (cynomolgus monkey)
T1 chain: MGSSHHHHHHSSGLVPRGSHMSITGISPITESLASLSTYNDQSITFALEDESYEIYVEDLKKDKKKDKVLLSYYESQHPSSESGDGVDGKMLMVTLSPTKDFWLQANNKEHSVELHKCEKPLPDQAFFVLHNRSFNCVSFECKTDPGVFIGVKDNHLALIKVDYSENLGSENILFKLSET
Assay: SPR Biacore T200, 37 C
assayEndpoint: Kd (nM)
State just the number; it will be interpreted in nM.

Give the measured Kd of H1M9566N (antibody, IgG1, V domains shown, also called RG2) VH: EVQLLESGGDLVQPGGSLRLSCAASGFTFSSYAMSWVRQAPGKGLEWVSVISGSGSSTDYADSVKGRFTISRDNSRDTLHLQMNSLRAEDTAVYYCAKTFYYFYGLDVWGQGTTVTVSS VL: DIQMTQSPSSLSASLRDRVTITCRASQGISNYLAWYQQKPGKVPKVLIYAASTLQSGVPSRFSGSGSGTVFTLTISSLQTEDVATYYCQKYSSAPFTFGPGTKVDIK .
2.54

Entry H1M9559N (antibody, IgG1, V domains shown, also called RG1) VH: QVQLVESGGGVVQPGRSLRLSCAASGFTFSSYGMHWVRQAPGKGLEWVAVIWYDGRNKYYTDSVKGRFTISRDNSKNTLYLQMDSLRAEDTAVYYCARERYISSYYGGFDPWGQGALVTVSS VL: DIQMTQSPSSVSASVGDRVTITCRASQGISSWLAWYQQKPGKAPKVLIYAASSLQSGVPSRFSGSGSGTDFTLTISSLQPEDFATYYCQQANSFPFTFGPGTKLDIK : reported Kd = ?
8.33

Report Kd for H4H9671P (antibody, V domains shown) VH: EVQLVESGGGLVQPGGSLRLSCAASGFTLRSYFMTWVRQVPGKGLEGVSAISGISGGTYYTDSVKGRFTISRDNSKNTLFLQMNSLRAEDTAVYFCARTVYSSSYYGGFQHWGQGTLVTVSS VL: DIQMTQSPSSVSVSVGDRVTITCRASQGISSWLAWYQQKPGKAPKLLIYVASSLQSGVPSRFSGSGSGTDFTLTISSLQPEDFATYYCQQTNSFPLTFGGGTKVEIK please.
3.66
